Tested on: Musca domestica
assay-notes: Housefly contact test, mortality after 48 hours
Assay type: in vivo, Housefly Musca domestica
condition-summary: μg of the test compound per 25 female flies
Experimental: The compounds in Table I above were tested for insecticidal activity using the following testing procedures. LC50 values, based on the results of these tests and calculated according to dosage-mortality curves, are expressed in Table II. The test compound was diluted in acetone and aliquots pipetted onto the bottom of aluminum dishes. […] Mortality was recorded after 48 hours. […]
assay-endpoint: LC50 HF (µg)

INSERT INTO results (molecule, value_unit, comparator, observed_result) VALUES
  ('CC(C)C(=Nc1ccc(OCC(F)(F)F)nc1)OCc1ccc(F)c(Oc2ccc(Cl)cc2)c1 [Compound 44]', 'µg', '>', 100),
  ('CC(C)C(=Nc1ccc2ncsc2c1)OCc1cccc(Oc2ccccc2)c1 [Compound 20]', 'µg', '=', 6),
  ('CC(C)(Cl)C(=Nc1ccc(Br)nc1)OCc1cccc(Oc2ccccc2)c1 [Compound 12]', 'µg', '=', 12),
  ('CC(C)C(=Nc1ccc(OCC(F)(F)F)nc1)OCc1cccc(Oc2ccccc2)n1 [Compound 45]', 'µg', '<', 100),
  ('CC(C)C(=Nc1cncc(C(F)(F)F)c1)OCc1cccc(Oc2ccc(F)cc2)c1 [Compound 35]', 'µg', '=', 23),
  ('CC(C)C(=Nc1ccc2ncoc2c1)OCc1cccc(Oc2ccccc2)c1 [Compound 18]', 'µg', '=', 8),
  ('Cc1cc(N=C(OCc2cccc(Oc3ccccc3)c2)C(C)C)no1 [Compound 8]', 'µg', '>', 100),
  ('Cc1nc2ccc(N=C(OCc3cccc(Oc4ccccc4)c3)C(C)C)cc2o1 [Compound 25]', 'µg', '=', 38),
  ('Clc1ccc(N=C(OCc2cccc(Oc3ccccc3)c2)C2CC2)cn1 [Compound 7]', 'µg', '>', 100),
  ('CC(C)C(=Nc1ccc(Cl)nc1)OCc1ccc(F)c(Oc2ccc(F)cc2)c1 [Compound 31]', 'µg', '=', 7.5),
  ('CC(C)C(=Nc1cnc2ccccc2c1)OCc1cccc(Oc2ccccc2)c1 [Compound 17]', 'µg', '=', 36),
  ('CC(C)C(=Nc1ccc(OCC(F)(F)F)nc1)OCc1cccc(Oc2ccc(Cl)cc2)c1 [Compound 39]', 'µg', '>', 100),
  ('CCOc1ccc(N=C(OCc2cccc(Oc3ccccc3)c2)C(C)C)cn1 [Compound 41]', 'µg', '<', 100),
  ('CC(C)C(=Nc1cncc(Br)c1)OCc1cccc(Oc2ccccc2)c1 [Compound 13]', 'µg', '=', 7),
  ('CC(C)C(=Nc1ccc2nc(C(C)C)oc2c1)OCc1cccc(Oc2ccccc2)c1 [Compound 27]', 'µg', '>', 100),
  ('CC(C)C(=Nc1ccc(Cl)nc1)OCc1ccc(F)c(Oc2ccc(Cl)cc2)c1 [Compound 32]', 'µg', '=', 22),
  ('C=C(C)C(=Nc1ccc(Cl)nc1)OCc1cccc(Oc2ccccc2)c1 [Compound 47]', 'µg', '<', 100),
  ('CC(C)C(=Nc1ccc(Br)nc1)OCc1cccc(Oc2ccccc2)c1 [Compound 11]', 'µg', '=', 7);

----------
Test system: Aphis fabae
assay-notes: Black bean aphid spray test on nasturtium plants, mortality after 48 hours
Format: in vivo, Black Bean Aphid Aphis fabae (Scop.)
condition-summary: mixed ages, percent of test compound in sprayed solution
Could you mark each record rule met if its LC50 BA falls strictly under 0.005%, and rule not met if it equals or exceeds it?

INSERT INTO measurements (smiles, classification) VALUES
  ('CC(C)C(=Nc1ccc(C(F)(F)F)cn1)OCc1cccc(Oc2ccccc2)c1', 'rule not met'),
  ('CC(C)C(=Nc1ccc(Br)nc1)OCc1cccc(Oc2ccccc2)c1', 'rule not met'),
  ('CC(C)C(=Nc1ccc(Cl)nc1Cl)OCc1cccc(Oc2ccccc2)c1', 'rule met'),
  ('CC(C)C(=Nc1cncc(C(F)(F)F)c1)OCc1cccc(Oc2ccccc2)c1', 'rule not met'),
  ('CC(C)C(=Nc1ccc(Cl)nc1)OCc1cccc(Oc2ccc(Cl)cc2)c1', 'rule not met'),
  ('CC(C)C(=Nc1ccc(OCC(F)(F)F)nc1)OCc1cccc(Oc2ccccc2)n1', 'rule met');
